# Test system: αvβ3 (Homo sapiens, UniProt P05106+P06756, DEL719-788)
# Construct: purchased R & D 3050-AV
# Sequence (P06756 31-992 limits assumed, stated change not applied): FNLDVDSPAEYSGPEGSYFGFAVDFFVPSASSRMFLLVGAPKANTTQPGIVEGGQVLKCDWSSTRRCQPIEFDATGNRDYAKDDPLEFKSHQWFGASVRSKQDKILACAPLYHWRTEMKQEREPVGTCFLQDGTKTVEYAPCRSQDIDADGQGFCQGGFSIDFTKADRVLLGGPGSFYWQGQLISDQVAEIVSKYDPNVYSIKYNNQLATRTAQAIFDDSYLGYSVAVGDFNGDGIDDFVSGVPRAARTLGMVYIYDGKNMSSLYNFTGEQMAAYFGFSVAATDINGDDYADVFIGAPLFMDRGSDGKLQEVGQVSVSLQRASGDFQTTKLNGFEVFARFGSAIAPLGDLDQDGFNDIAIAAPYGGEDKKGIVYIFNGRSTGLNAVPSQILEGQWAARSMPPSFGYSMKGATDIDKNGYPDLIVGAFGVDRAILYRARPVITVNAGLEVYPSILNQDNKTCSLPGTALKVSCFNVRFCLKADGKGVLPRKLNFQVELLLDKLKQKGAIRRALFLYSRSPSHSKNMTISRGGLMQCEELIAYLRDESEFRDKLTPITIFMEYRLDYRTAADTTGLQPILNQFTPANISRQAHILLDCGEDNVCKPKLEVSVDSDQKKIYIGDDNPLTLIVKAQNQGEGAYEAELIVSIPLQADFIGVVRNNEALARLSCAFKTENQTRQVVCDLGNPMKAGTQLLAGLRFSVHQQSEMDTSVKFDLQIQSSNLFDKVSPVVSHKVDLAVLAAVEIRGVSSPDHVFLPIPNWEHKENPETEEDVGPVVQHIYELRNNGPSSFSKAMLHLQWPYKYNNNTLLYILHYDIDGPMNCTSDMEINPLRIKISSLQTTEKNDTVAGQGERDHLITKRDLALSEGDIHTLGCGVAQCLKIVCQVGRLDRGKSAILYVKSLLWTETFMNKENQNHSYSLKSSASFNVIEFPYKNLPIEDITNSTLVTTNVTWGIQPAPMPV
# Sequence (P05106 27-718 limits assumed, stated change not applied): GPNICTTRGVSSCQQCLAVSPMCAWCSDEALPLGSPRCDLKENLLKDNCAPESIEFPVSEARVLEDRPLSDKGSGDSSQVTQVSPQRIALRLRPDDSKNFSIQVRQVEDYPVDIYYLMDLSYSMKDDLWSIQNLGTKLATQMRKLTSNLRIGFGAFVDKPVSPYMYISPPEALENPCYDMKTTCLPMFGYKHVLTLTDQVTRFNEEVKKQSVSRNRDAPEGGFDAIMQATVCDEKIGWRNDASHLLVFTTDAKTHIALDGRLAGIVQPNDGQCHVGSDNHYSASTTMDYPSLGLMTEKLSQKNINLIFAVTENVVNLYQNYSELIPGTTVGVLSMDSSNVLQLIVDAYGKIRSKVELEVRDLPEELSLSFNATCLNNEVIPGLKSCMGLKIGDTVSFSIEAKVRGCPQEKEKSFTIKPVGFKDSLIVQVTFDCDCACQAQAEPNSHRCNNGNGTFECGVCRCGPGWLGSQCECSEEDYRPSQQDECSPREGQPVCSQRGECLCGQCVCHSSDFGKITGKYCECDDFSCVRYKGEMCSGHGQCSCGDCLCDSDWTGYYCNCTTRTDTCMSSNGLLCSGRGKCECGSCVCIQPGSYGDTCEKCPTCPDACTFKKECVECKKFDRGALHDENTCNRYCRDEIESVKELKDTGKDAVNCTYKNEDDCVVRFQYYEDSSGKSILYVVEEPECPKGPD
# Method description: Human αVβ3 solid phase assay (fibrinogen binding)
# Experimental setup: αvβ3-coated plates, fibrinogen as ligand; read-out: IC50 of control compound
# Method: Buffer used was Buffer A: 20 mM Tris, 150 mM NaCl, 1 mM CaCl2, 1 mM MgCl2, pH 7.4. […] After blocking, plates were washed 5 times with 200 uL of Buffer B (Buffer A+1 mM MnCl2). […] Plates were shaken for 2 minutes, and then incubated for 2 hours for 37° C. […] After being added 100 uL/well Stop Buffer (1.0 M Phosphoric Acid ([…])), plates were read on Envision at Absorbance mode 450 nm.
Attribute measured: IC50

For reference, reported IC50 for `COc1ccc(NC(=O)[C@H](CC(=O)O)NC(=O)CNC(=O)c2cccc(N=C(N)N)c2)cc1` stands at ~2 nM

###

# Test system: αvβ3 (Homo sapiens, UniProt P05106+P06756, DEL719-788)
# Construct: purchased R & D 3050-AV
# Method description: Human αVβ3 solid phase assay (fibrinogen binding)
# Experimental setup: αvβ3-coated plates, fibrinogen as ligand; read-out: Binding IC50
Attribute measured: IC50 (nM)
Please respond with the number in nM and leave the unit unwritten.

For reference, reported IC50 for COc1ccc(NC(=O)[C@H](CC(=O)O)NC(=O)CNC(=O)c2cccc(N=C(N)N)c2)cc1 [compound 28] stands at 2
